The reported measurements were obtained from patent US10239856B2.

# IC50 annotations
test system: SKBr3; experiment: Cytotoxicity against SKBr3 breast cancer cells; assay type: cell-based; details: Homo sapiens, SK-BR-3, first value of cell

{"Compound": "O=C1OCC/C=C/CC/C=C/C(=N/OCC(=O)N2CCCCC2)Cc2cc(O)cc(O)c21 [13b]", "IC50": "0.12 µM"}
{"Compound": "O=C1OCC/C=C/CC/C=C/C(=NOCC(=O)N2CCNCC2)Cc2c(Cl)c(O)cc(O)c21 [13e]", "IC50": "> 10 µM"}
{"Compound": "CNC(=O)CON=C1/C=C/CC/C=C/CCOC(=O)c2c(O)cc(O)c(Cl)c2C1 [13i]", "IC50": "> 10 µM"}
{"Compound": "COC(=O)CON=C1/C=C/CC/C=C/CCOC(=O)c2c(O)cc(O)c(Cl)c2C1 [13l]", "IC50": "> 10 µM"}
{"Compound": "O=C1OCC/C=C/CC/C=C/C(=NOCC(=O)N2CCOCC2)Cc2c(Cl)c(O)cc(O)c21 [13d]", "IC50": "> 10 µM"}
{"Compound": "O=C1OCC/C=C/CC/C=C/C(=N\\OCC(=O)N2CCCCC2)Cc2c(Cl)c(O)cc(O)c21 [14a]", "IC50": "> 10 µM"}
{"Compound": "C[C@@H]1C/C=C/CC/C=C/C(=N/OCC(=O)N2CCCCC2)Cc2cc(O)cc(O)c2C(=O)O1 [13c]", "IC50": "0.45 µM"}
{"Compound": "COC1CC/C=C/CCOC(=O)c2c(O)cc(O)c(Cl)c2C/C(=N\\OCC(=O)N2CCCCC2)C1 (centres unmarked) [13f]", "IC50": "1.3 µM"}

---

target: UniProtKB P07900; experiment: Affinity to HSP90α; type: binding; settings: HSP90 affinity
pIC50: −log10 of the molar value.
# pIC50 annotations

{"Molecule": "O=C1OCC/C=C/CC/C=C/C(=NOCC(=O)N2CCC(Cc3ccccc3)CC2)Cc2cc(O)cc(O)c21", "pIC50": 5.24}
{"Molecule": "CCCN(CCC)C(=O)CON=C1/C=C/CC/C=C/CCOC(=O)c2c(O)cc(O)cc2C1", "pIC50": 6.81}
{"Molecule": "O=C1OCC/C=C/CC/C=C/C(=NOCC(=O)N2CCSCC2)Cc2cc(O)cc(O)c21", "pIC50": 7.15}
{"Molecule": "CCCC1C/C=C/CC/C(C)=C/C(=NOCC(=O)N2CCCCC2)Cc2cc(O)cc(O)c2C(=O)O1 (stereo not shown)", "pIC50": 6.71}
{"Molecule": "CC1/C=C/CCCOC(=O)c2c(O)cc(O)c(Cl)c2CC(=NOCC(=O)N2CCCCC2)/C=C/C1 (stereo not shown)", "pIC50": 5.76}
{"Molecule": "CCCC1C/C=C/CC/C=C/C(=NOCC(=O)N2CCCCC2)Cc2c(Cl)c(O)cc(O)c2C(=O)O1 (stereo not shown)", "pIC50": 7.02}
{"Molecule": "CC1/C=C/CCOC(=O)c2c(O)cc(O)cc2CC(=NOCC(=O)N2CCCCC2)/C=C/C1 (stereo not shown)", "pIC50": 7.42}

---

target: HSP90α (Homo sapiens, UniProt P07900); assay: Affinity to HSP90α; assay type: binding; settings: HSP90 affinity
pIC50: −log10 of the molar value.
# pIC50 annotations

{"Molecule": "CCCC1C/C=C/CC/C(C)=C/C(=NOCC(=O)N(CC)CC)Cc2cc(O)cc(O)c2C(=O)O1 (stereo not drawn) [compound 363]", "pIC50": 6.05}
{"Molecule": "O=C1OCC/C=C/CC/C=C/C(=NOCC(=O)N2CCNCC2)Cc2cc(O)cc(O)c21", "pIC50": 7.01}
{"Molecule": "O=C1OCC/C=C/CC/C=C/C(=NOCC(=O)N(Cc2ccccc2)Cc2ccccc2)Cc2cc(O)cc(O)c21", "pIC50": 5.52}
{"Molecule": "CC1CCCN(C(=O)CON=C2/C=C/CC/C=C/CCOC(=O)c3c(O)cc(O)cc3C2)C1 (stereo not drawn)", "pIC50": 7.23}
{"Molecule": "C=C/C1=C\\CC/C=C/C(=NOCC(=O)N2CCCCC2)Cc2c(Cl)c(O)cc(O)c2C(=O)OCC1", "pIC50": 6.36}
{"Molecule": "O=C(CON=C1/C=C/CC/C=C/CCOC(=O)c2c(O)cc(O)cc2C1)NCc1ccccc1", "pIC50": 7.24}
{"Molecule": "O=C1OCC/C=C/CC/C=C/C(=N/OCC(=O)N2CCCCC2)Cc2cc(O)cc(O)c21 [13b]", "pIC50": 7.82}
{"Molecule": "O=C(CON=C1/C=C/CC/C=C/CCOC(=O)c2c(O)cc(O)cc2C1)NC1CCCCC1", "pIC50": 6.94}
{"Molecule": "C[C@@H]1C/C=C/CC/C=C/C(=N/OCC(=O)N2CCCCC2)Cc2cc(O)cc(O)c2C(=O)O1 [13c]", "pIC50": 7.74}
{"Molecule": "O=C1NCC/C=C/CC/C=C/C(=NOCC(=O)N2CCCCC2)Cc2c(Cl)c(O)cc(O)c21", "pIC50": 7.01}
{"Molecule": "CC1C=CC(C)N1C(=O)CON=C1/C=C/CC/C=C/CCOC(=O)c2c(O)cc(O)cc2C1 (stereo not drawn)", "pIC50": 6.93}
{"Molecule": "O=C1OCC/C=C/CC/C=C/C(=N\\OCC(=O)N2CCCCC2)Cc2cc(O)cc(O)c21 [14b]", "pIC50": 6.96}

---

target: HSP90α (Homo sapiens); test: Affinity to HSP90α; type: binding; settings: read-out: HSP90 affinity
pIC50: −log10 of the molar value.
# pIC50 annotations

{"Compound": "O=C(CON=C1/C=C/CC/C=C/CCOC(=O)c2c(O)cc(O)c(Cl)c2C1)NCCO [13h]", "Result operator": "=", "pIC50": 6.41}
{"Compound": "O=C1OCC/C=C/CC/C=C/C(=N\\OCC(=O)N2CCCCC2)Cc2c(Cl)c(O)cc(O)c21 [14a]", "Result operator": "=", "pIC50": 5.74}
{"Compound": "CC1/C=C/CCCOC(=O)c2c(O)cc(O)cc2CC(=NOCC(=O)N2CCCCC2)/C=C/C1 (stereo not drawn) [compound 361]", "Result operator": "=", "pIC50": 6.27}
{"Compound": "C=CCC/C=C/C(Cc1c(Cl)c(O)cc(O)c1C(=O)OCCC=C)=NOCC(=O)N1CCCCC1 [13m]", "Result operator": "<", "pIC50": 5.00}
{"Compound": "O=C1OCC/C=C/CC/C=C/C(=NOCC(=O)N2CCNCC2)Cc2c(Cl)c(O)cc(O)c21 [13e]", "Result operator": "<", "pIC50": 5.00}
{"Compound": "C/C1=C\\C(=NOCC(=O)N2CCCCC2)Cc2cc(O)cc(O)c2C(=O)O[C@H](C)C/C=C/CC1 [compound 336]", "Result operator": ">", "pIC50": 7.28}

---

system: Her-2 (HSP90 client); assay: Her-2 (HSP90 client) degradation (client depletion); assay type: cell-based; details: Her-2 degradation; read-out: Client Depletion
pIC50: −log10 of the molar value.

{"Molecule": "O=C1OCC/C=C/CC/C=C/C(=N\\OCC(=O)N2CCCCC2)Cc2c(Cl)c(O)cc(O)c21 [14a]", "pIC50": "< 5.00"}
{"Molecule": "COC1CC/C=C/CCOC(=O)c2c(O)cc(O)c(Cl)c2C/C(=N\\OCC(=O)N2CCCCC2)C1 (stereo not drawn) [13f]", "pIC50": 5.62}
{"Molecule": "C=CCC/C=C/C(Cc1c(Cl)c(O)cc(O)c1C(=O)OCCC=C)=NOCC(=O)N1CCCCC1 [13m]", "pIC50": "< 5.00"}
